Value source: patent US12479830B2

Target: Human σ1 receptor (Homo sapiens)
Construct: expressed in transfected cells; host or cells: HEK-293
Sequence (Q99720 whole entry): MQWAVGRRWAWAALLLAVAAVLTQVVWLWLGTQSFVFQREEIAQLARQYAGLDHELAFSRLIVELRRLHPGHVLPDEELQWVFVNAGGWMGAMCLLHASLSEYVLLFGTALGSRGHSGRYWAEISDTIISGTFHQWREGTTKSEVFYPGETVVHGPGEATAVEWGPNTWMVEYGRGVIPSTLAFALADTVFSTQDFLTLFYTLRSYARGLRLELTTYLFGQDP
Test: Human σ1 receptor radioligand assay ([3H](+)-pentazocine binding)
Settings: binding to the σ1 receptor, expressed as Ki class; + also covers inhibition between 1% and 50%
pKi: −log10 of the molar value.
// pKi lookup, one value per entry

Consider the reported pKi for these compounds:
CCCC(c1nc2ccc(Br)cc2c(=O)n1CC)N1CCCN(CC)CC1 (centres unmarked)    > 6.30
CCC[C@@H](c1nc2ccc(Br)cc2c(=O)n1CC)N1CCN(C)C[C@@H](CO)C1    < 6.00
CCCC(c1nc2ncccc2c(=O)n1CC)N1CCCNCC1 (centres unmarked)    < 6.00
CCCC(c1nc2cc(Br)c(F)cc2c(=O)n1CC)N1CCCN(C)CC1 (centres unmarked)    > 6.30

The record that follows has no pKi shown yet.
Request: Fill blank: measured pKi of the compound CCCC(c1nc2c(C)cc(Br)cc2c(=O)n1CC)N1CCCN(CC)CC1 (centres unmarked) is ____.
Response: > 6.30
